As shown below, each of these compounds has a reported Euclidean distance value.
Test system: HEPG2
Test: Euclidean distance of Cell Painting phenotypic profile (signed KS, 77 features) to DMSO centroid (dimensionless distance); 5 or 10 uM (library dependent); higher = stronger phenotypic change vs DMSO (phenoactivity)
Test settings: 48 h
Structures can show the parent of a compound that is named as a salt.
Form rule: numeric answer, no unit written next to it.

Example entries and their recorded answers appear below.
>  <Compound>
CNC(=O)[C@@H](NC(=O)[C@H](CC(C)C)[C@H](O)C(=O)NO)C(C)(C)C [Marimastat (BB-2516)]

>  <Assayed system>
HEPG2

>  <Euclidean distance>
0.866

$$$$
>  <Compound>
COc1ccc2cc1Oc1ccc(cc1)C[C@H]1c3cc(c(OC)cc3CCN1C)Oc1c(OC)c(OC)cc3c1[C@H](C2)N(C)CC3 [Tetrandrine]

>  <Assayed system>
HEPG2

>  <Euclidean distance>
1.84

$$$$
>  <Compound>
Cc1nnc(C(C)C)n1C1C[C@H]2CC[C@@H](C1)N2CC[C@H](NC(=O)C1CCC(F)(F)CC1)c1ccccc1 (stereo in doubt) [Maraviroc]

>  <Assayed system>
HEPG2

>  <Euclidean distance>
0.487

$$$$
>  <Compound>
CC/C=C(\C(=O)N[C@@H]1C(=O)N2C(C(=O)OCOC(=O)C(C)(C)C)=C(COC(N)=O)CS[C@H]12)c1csc(N)n1 [Cefcapene Pivoxil Hydrochloride]

>  <Assayed system>
HEPG2

>  <Euclidean distance>
0.54

$$$$
>  <Compound>
CC1(C)S[C@@H]2[C@H](NC(=O)C(C(=O)O)c3ccccc3)C(=O)N2[C@H]1C(=O)O (some centres not stated) [Carbenicillin disodium]

>  <Assayed system>
HEPG2

>  <Euclidean distance>
0.836

$$$$
>  <Compound>
C[C@H]1COc2c(C3(N)CC3)c(F)cc3c(=O)c(C(=O)O)cn1c23 [Pazufloxacin mesylate]

>  <Assayed system>
HEPG2

>  <Euclidean distance>
1.28

$$$$

Shifting focus to the compound that follows.
Could you tell me which Euclidean distance is on file for Cc1cc(C)cc(OCC2CNC(=O)O2)c1 (configuration not stated) [Metaxalone] ?
0.417
